assay-comment: Cytotoxicity against human U937 cells assessed as cell viability at >= 8 ug/ml incubated for 24 to 48 hrs by MTT assay
Type: cell-based, U-937
condition-context: read-out: Activity
property-label: viability

Exercise: Any idea what viability was measured for Cl.O=C(OC(Cn1ccnc1)c1ccc(Cl)cc1Cl)c1ccc(-c2ccccc2)cc1 (racemic) ?
Solution: < 80%

###

System: Candida albicans
assay-comment: Antifungal activity against azole-susceptible Candida albicans ATCC 90028 assessed as reduction in fungal growth incubated for 48 hrs by broth microdilution method
Type: functional
condition-context: ATCC 90028, 48 h
property-label: MIC (µg/mL)
Provide only the numeric value, understood in µg/mL.

Some solved cases for reference:
COc1ccc(C(=O)OC(Cn2ccnc2)c2ccc(Cl)cc2Cl)cc1.Cl (racemic)    2
CCc1ccc(C(=O)O/N=C(\Cn2ccnc2)c2ccc(Cl)cc2Cl)cc1.Cl    128
Cl.O=C(O/N=C(\Cn1ccnc1)c1ccc(Cl)cc1Cl)c1ccc(Cl)cc1    32
O/N=C(\Cn1ccnc1)c1ccc(Cl)cc1Cl    32
Cl.O=C(O/N=C(\Cn1ccnc1)c1ccc(Cl)cc1Cl)c1ccc(-c2ccc(-c3ccccc3)cc2)cc1    128

Next up:
Exercise: Any idea what MIC was measured for CC(C)(C)OC(=O)NCCCC(=O)OC(Cn1ccnc1)c1ccc(Cl)cc1Cl.Cl (racemic) ?
Solution: 8

###

Test system: Candida tropicalis
assay-comment: Antifungal activity against azole-resistant Candida tropicalis assessed as reduction in fungal growth incubated for 48 hrs by broth microdilution method
Assay type: functional
// NB: equality with 8 mg/L counts as 0; only MIC strictly below is 1

Cl.O=C(OC(Cn1ccnc1)c1ccc(Cl)cc1Cl)c1ccc2ccccc2c1 (racemic)    1
OC(Cn1cncn1)(Cn1cncn1)c1ccc(F)cc1F    0
Cl.O=C(CCCc1ccccc1)OC(Cn1ccnc1)c1ccc(Cl)cc1Cl (racemic)    0
Cl.O=C(OC(Cn1ccnc1)c1ccc(Cl)cc1Cl)C1CCCCC1 (racemic)    0
OC(Cn1ccnc1)c1ccc(Cl)cc1Cl (centres undefined)    0

Exercise: Check if MIC falls below 8 mg/L for Cl.O=C(/C=C/c1ccccc1)OC(Cn1ccnc1)c1ccc(Cl)cc1Cl (racemic) .
Solution: 1

Exercise: Same question for Cl.O=C(OC(Cn1ccnc1)c1ccc(Cl)cc1Cl)c1cc2ccccc2[nH]1 (racemic) please.
Solution: 1

Exercise: Same question for COc1ccc(C(=O)OC(Cn2ccnc2)c2ccc(Cl)cc2Cl)cc1.Cl (racemic) please.
Solution: 1

###

Tested on: Candida parapsilosis
assay-comment: Antifungal activity against azole-susceptible Candida parapsilosis ATCC 90018 assessed as reduction in fungal growth incubated for 48 hrs by broth microdilution method
Format: functional
condition-context: Lodderomyces parapsilosis, ATCC 90018, 48 h
Item-by-item account of MIC
Provide only the numeric value, understood in mg/L.

Some solved cases for reference:
COc1ccc(C(=O)O/N=C(\Cn2ccnc2)c2ccc(Cl)cc2Cl)cc1    1
CC(C)(C)c1ccc(C(=O)OC(Cn2ccnc2)c2ccc(Cl)cc2Cl)cc1.Cl (racemic)    128
Cl.O=C(O/N=C(\Cn1ccnc1)c1ccc(Cl)cc1Cl)c1ccc(-c2ccc(-c3ccccc3)cc2)cc1    128

Exercise: Any idea what MIC was measured for Cl.O=C(OC(Cn1ccnc1)c1ccc(Cl)cc1Cl)c1ccc(Cl)cc1Cl (racemic) ?
Solution: 128

Exercise: Same question for Cl.O=C(OC(Cn1ccnc1)c1ccc(Cl)cc1Cl)c1ccc2ccccc2c1 (racemic) please.
Solution: 1

###

Test system: Candida tropicalis
assay-comment: Antifungal activity against azole-resistant Candida tropicalis assessed as reduction in fungal growth incubated for 48 hrs by broth microdilution method
Assay type: functional
property-label: MIC
# do not omit the unit; it follows the number

Exercise: Any idea what MIC was measured for `COc1ccc(C(=O)O/N=C(\Cn2ccnc2)c2ccc(Cl)cc2Cl)cc1` ?
Solution: 64 µg/mL

Exercise: Same question for `CC(C)(C)c1ccc(C(=O)O/N=C(\Cn2ccnc2)c2ccc(Cl)cc2Cl)cc1` please.
Solution: 64 µg/mL

Exercise: Same question for `CSc1ccc(C(=O)O/N=C(\Cn2ccnc2)c2ccc(Cl)cc2Cl)cc1.Cl` please.
Solution: 16 µg/mL

Exercise: Same question for Cl.N#Cc1ccc(C(=O)OC(Cn2ccnc2)c2ccc(Cl)cc2Cl)cc1 (racemic) please.
Solution: 16 µg/mL

Exercise: Same question for `O=C(O/N=C(\Cn1ccnc1)c1ccc(Cl)cc1Cl)c1ccc(-c2ccccc2)cc1` please.
Solution: 256 µg/mL

Exercise: Same question for `Cl.O=C(O/N=C(\Cn1ccnc1)c1ccc(Cl)cc1Cl)c1cc2ccccc2[nH]1` please.
Solution: 256 µg/mL

Exercise: Same question for Cl.O=C(OC(Cn1ccnc1)c1ccc(Cl)cc1Cl)C1CCCC1 (racemic) please.
Solution: 8 µg/mL

Exercise: Same question for `O=C(/C=C/c1ccccc1)O/N=C(\Cn1ccnc1)c1ccc(Cl)cc1Cl` please.
Solution: 64 µg/mL

Exercise: Same question for `CCc1ccc(C(=O)O/N=C(\Cn2ccnc2)c2ccc(Cl)cc2Cl)cc1.Cl` please.
Solution: 8 µg/mL

Exercise: Same question for Cl.O=C(OC(Cn1ccnc1)c1ccc(Cl)cc1Cl)c1ccc(-c2ccccc2)cc1 (racemic) please.
Solution: 512 µg/mL

###

Item-by-item account of MIC
System: Candida parapsilosis
assay-comment: Antifungal activity against azole-susceptible Candida parapsilosis ATCC 90018 assessed as reduction in fungal growth incubated for 48 hrs by broth microdilution method
Assay type: functional
condition-context: Lodderomyces parapsilosis, ATCC 90018, 48 h
Provide only the numeric value, understood in mg/L.

Some solved cases for reference:
Cl.O=C(OC(Cn1ccnc1)c1ccc(Cl)cc1Cl)c1ccc(C(F)(F)F)cc1 (racemic)    256
CSc1ccc(C(=O)OC(Cn2ccnc2)c2ccc(Cl)cc2Cl)cc1.Cl (racemic)    16

Exercise: Any idea what MIC was measured for Cl.O=C(/C=C/c1ccccc1)OC(Cn1ccnc1)c1ccc(Cl)cc1Cl (racemic) ?
Solution: 1

###

System: Candida albicans
assay-comment: Antifungal activity against azole-susceptible Candida albicans ATCC 90028 assessed as reduction in fungal growth incubated for 48 hrs by broth microdilution method
Format: functional
condition-context: ATCC 90028, 48 h
property-label: MIC (µg/mL)
Provide only the numeric value, understood in µg/mL.

Exercise: Any idea what MIC was measured for Cl.O=C(CCC(=O)c1ccccc1)OC(Cn1ccnc1)c1ccc(Cl)cc1Cl (racemic) ?
Solution: 16

###

Test system: Candida albicans
assay-comment: Antifungal activity against azole-susceptible Candida albicans ATCC 90028 assessed as reduction in fungal growth incubated for 48 hrs by broth microdilution method
Type: functional
condition-context: ATCC 90028, 48 h
Item-by-item account of MIC
Provide only the numeric value, understood in µg/mL.

Some solved cases for reference:
Cl.O=C(O/N=C(\Cn1ccnc1)c1ccc(Cl)cc1Cl)c1cc2ccccc2[nH]1    128
Cl.O=C(OC(Cn1ccnc1)c1ccc(Cl)cc1Cl)c1ccc(Cl)cc1Cl (racemic)    128
O=C(Cn1ccnc1)c1ccc(Cl)cc1Cl    128
OC(Cn1ccnc1)c1ccc(Cl)cc1Cl (stereo not given)    8

Exercise: Any idea what MIC was measured for CC(C)c1ccc(C(=O)OC(Cn2ccnc2)c2ccc(Cl)cc2Cl)cc1.Cl (racemic) ?
Solution: 256

Exercise: Same question for `CSc1ccc(C(=O)O/N=C(\Cn2ccnc2)c2ccc(Cl)cc2Cl)cc1.Cl` please.
Solution: 2

Exercise: Same question for O=C(OC(Cn1ccnc1)c1ccc(Cl)cc1Cl)c1ccc(-c2ccc(-c3ccccc3)cc2)cc1 (racemic) please.
Solution: 256

Exercise: Same question for Cl.O=C(OC(Cn1ccnc1)c1ccc(Cl)cc1Cl)C1CCCCC1 (racemic) please.
Solution: 8

Exercise: Same question for Cl.O=C(OC(Cn1ccnc1)c1ccc(Cl)cc1Cl)C1CCCC1 (racemic) please.
Solution: 1

Exercise: Same question for Cl.O=C(/C=C/c1ccccc1)OC(Cn1ccnc1)c1ccc(Cl)cc1Cl (racemic) please.
Solution: 0.5

Exercise: Same question for Cl.O=C(OC(Cn1ccnc1)c1ccc(Cl)cc1Cl)c1ccc([N+](=O)[O-])cc1 (racemic) please.
Solution: 8

###

Tested on: Candida albicans
assay-comment: Antifungal activity against azole-susceptible Candida albicans ATCC 90028 assessed as reduction in fungal growth incubated for 48 hrs by broth microdilution method
Format: functional
condition-context: ATCC 90028, 48 h
// NB: equality with 2 µg/mL counts as False; only MIC strictly below is True

Here's what some known entries look like.
Cl.O=C(OC(Cn1ccnc1)c1ccc(Cl)cc1Cl)c1cc2ccccc2[nH]1 (racemic)    True
O=C(O/N=C(\Cn1ccnc1)c1ccc(Cl)cc1Cl)C1CCCCC1    False
Cl.O=C(O/N=C(\Cn1ccnc1)c1ccc(Cl)cc1Cl)c1ccc([N+](=O)[O-])cc1    False
OC(Cn1cncn1)(Cn1cncn1)c1ccc(F)cc1F [FLUCONAZOLE]    True

Exercise: Check if MIC falls below 2 µg/mL for `COc1ccc(C(=O)O/N=C(\Cn2ccnc2)c2ccc(Cl)cc2Cl)cc1` .
Solution: True

Exercise: Same question for `O=C(O/N=C(\Cn1ccnc1)c1ccc(Cl)cc1Cl)c1ccc(-c2ccccc2)cc1` please.
Solution: True
